Test system: PfAP2-G AP2 domain (GST-tagged)
Assay: gcPBM binding intensity (ln(normalized median fluorescence intensity)); higher = stronger DNA binding
In all, about 25,000 sequences were measured (“ln(normalized median fluorescence intensity)”: median about 10, highest 2% from about 12 on). What follows is part of a selection rich in the highest values, with near analogues and random picks from the rest.
measured_parameter: gcPBM binding intensity (ln)
Reply briefly: the number, and no unit.

[Q] Value wanted: gcPBM binding intensity (ln) (PfAP2-G AP2 domain (GST-tagged)) of entry TAAATTTTTTTTTTTTGTACACAAAAATATAATATT [XGTACX_site8151]
[A] 11.4

[Q] Value wanted: gcPBM binding intensity (ln) (PfAP2-G AP2 domain (GST-tagged)) of entry ATTTGCTTTTATTTTACACACTTGCTCCTGTTGTAC [CACACA_site1088]
[A] 10.9

[Q] Value wanted: gcPBM binding intensity (ln) (PfAP2-G AP2 domain (GST-tagged)) of entry TATTCATAATTTTAATGTACAAAATGGTTTGTAATA [XGTACX_site8493]
[A] 10.6

[Q] Value wanted: gcPBM binding intensity (ln) (PfAP2-G AP2 domain (GST-tagged)) of entry GACATTTCTTGGGATACATGCATGTCCCAGAACAAA [TGCATGCA_site271]
[A] 10.6

[Q] Value wanted: gcPBM binding intensity (ln) (PfAP2-G AP2 domain (GST-tagged)) of entry TTGTATTAAAATCAAGTGCATATAATTTAAGTTCAT [GTGCAC_site9495]
[A] 10

Ref: the supplement of paper PMC11417369
